// values below are reported inhibition
# Tested on: Yersinia pseudotuberculosis YPIII
# ASSAY NAME: Inhibition of T3S in Yersinia pseudotuberculosis YPIII expressing yopE-luxAB at 50 uM after 3 hrs by luciferase reporter gene assay
QUANTITY MEASURED: inhibition (%)

| SMI | RESULT UNITS | READOUT VALUE |
| --- | --- | --- |
| Cc1ccc(C(=O)N/N=C/c2cc(C(C)(C)C)ccc2O)cc1 | % | 17 |
| COc1cccc(C(=O)N/N=C/c2cc(OC)cc(OC)c2O)c1 | % | 43 |
| COc1cc([N+](=O)[O-])cc(/C=N/NC(=O)c2ccncc2)c1O | % | 35 |
| CC(C)(C)c1ccc(O)c(/C=N/NC(=O)CC23CC4CC(CC(C4)C2)C3)c1 | % | 10 |
| O=C(N/N=C/c1cc(F)cc(Cl)c1O)c1cc(Cl)cc(Cl)c1 | % | 19 |
| COc1ccc(Br)c(/C=N/NC(=O)c2snnc2C)c1O | % | 60 |
| O=C(N/N=C/c1c(O)cc(O)cc1O)c1sc2ccccc2c1Cl | % | 70 |
| O=C(Cc1ccccc1)N/N=C/c1cc(Br)ccc1O | % | 26 |

----------
# System: Yersinia pseudotuberculosis YPIII
# ASSAY NAME: Inhibition of T3S in Yersinia pseudotuberculosis YPIII expressing yopE-luxAB at 25 uM after 3 hrs by luciferase reporter gene assay
QUANTITY MEASURED: inhibition (%)

| SMI | QUANTITY MEASURED | READOUT VALUE |
| --- | --- | --- |
| COc1cccc(C(=O)N/N=C/c2cc(Br)ccc2O)c1 | inhibition | 22 |
| COc1ccc(Br)c(/C=N/NC(=O)c2snnc2C)c1O | inhibition | 34 |
| O=C(N/N=C/c1cc(Br)ccc1O)c1ccccc1Cl | inhibition | 11 |
| CC(C)(C)c1cc(/C=N/NC(=O)c2cccc(C(F)(F)F)c2)c(O)c(C(C)(C)C)c1 | inhibition | 6 |
| COc1cc(Br)cc(/C=N/NC(=O)CCc2ccc(O)cc2)c1O | inhibition | 18 |
| COc1cc(/C=N/NC(=O)COc2ccc([N+](=O)[O-])cc2)c(O)c(OC)c1 | inhibition | 18 |

----------
# Test system: Yersinia pseudotuberculosis YPIII
# ASSAY NAME: Inhibition of T3S in Yersinia pseudotuberculosis YPIII expressing yopE-luxAB at 100 uM after 3 hrs by luciferase reporter gene assay
Classify by measured inhibition: satisfied if it is equal to or exceeds 30%, not satisfied if it is smaller.

| SMI | SYSTEM NAME | LABEL |
| --- | --- | --- |
| COc1cc(/C=N/NC(=O)c2cccc(C(F)(F)F)c2)c(O)c(OC)c1 | Yersinia pseudotuberculosis YPIII | satisfied |
| O=C(N/N=C/c1cccc(F)c1O)c1cccc(C(F)(F)F)c1 | Yersinia pseudotuberculosis YPIII | satisfied |
| O=C(N/N=C/c1cc(I)cc(I)c1O)c1cc(Cl)cc(Cl)c1 | Yersinia pseudotuberculosis YPIII | not satisfied |
| O=C(CC12CC3CC(CC(C3)C1)C2)N/N=C/c1ccc(Cl)cc1O | Yersinia pseudotuberculosis YPIII | not satisfied |
| CCN(CC)c1ccc(/C=N/NC(=O)COc2ccc(F)cc2)c(O)c1 | Yersinia pseudotuberculosis YPIII | satisfied |
| COc1ccc(Br)c(/C=N/NC(=O)CC#N)c1O | Yersinia pseudotuberculosis YPIII | satisfied |
| Cc1ccc(C(=O)N/N=C/c2cc(C(C)(C)C)ccc2O)cc1 | Yersinia pseudotuberculosis YPIII | not satisfied |
| CC(C)(C)c1ccc(O)c(/C=N/NC(=O)Cc2ccccc2)c1 | Yersinia pseudotuberculosis YPIII | not satisfied |
| O=C(CCc1ccc(F)cc1)N/N=C/c1cc(F)cc(Cl)c1O | Yersinia pseudotuberculosis YPIII | satisfied |
| COc1cccc(C(=O)N/N=C/c2cc(OC)cc(OC)c2O)c1 | Yersinia pseudotuberculosis YPIII | satisfied |
| O=C(Cc1ccccc1)N/N=C/c1cc(Br)ccc1O | Yersinia pseudotuberculosis YPIII | satisfied |
| O=C(N/N=C/c1cc(F)cc(Cl)c1O)c1cc(Cl)cc(Cl)c1 | Yersinia pseudotuberculosis YPIII | not satisfied |
| COc1cc([N+](=O)[O-])cc(/C=N/NC(=O)c2ccncc2)c1O | Yersinia pseudotuberculosis YPIII | satisfied |
| CCN(CC)c1ccc(/C=N/NC(=O)c2ccc(OC)c(OC)c2)c(O)c1 | Yersinia pseudotuberculosis YPIII | satisfied |
| COc1cc(Br)cc(/C=N/NC(=O)c2sc3ccccc3c2Cl)c1O | Yersinia pseudotuberculosis YPIII | satisfied |
| CCN(CC)c1ccc(/C=N/NC(=O)c2cc(Cl)cc(Cl)c2)c(O)c1 | Yersinia pseudotuberculosis YPIII | satisfied |
| COc1cccc(C(=O)N/N=C/c2cc(Br)ccc2O)c1 | Yersinia pseudotuberculosis YPIII | satisfied |
| O=C(N/N=C/c1c(O)cc(O)cc1O)c1sc2ccccc2c1Cl | Yersinia pseudotuberculosis YPIII | satisfied |
| O=C(CC12CC3CC(CC(C3)C1)C2)N/N=C/c1cc([N+](=O)[O-])cc([N+](=O)[O-])c1O | Yersinia pseudotuberculosis YPIII | not satisfied |
| COc1ccc(Br)c(C(=O)N/N=C/c2ccc(Cl)cc2O)c1 | Yersinia pseudotuberculosis YPIII | satisfied |
| CC(C)(C)c1ccc(O)c(/C=N/NC(=O)c2ccc(Br)cc2)c1 | Yersinia pseudotuberculosis YPIII | satisfied |
| COc1ccc(Br)c(/C=N/NC(=O)c2snnc2C)c1O | Yersinia pseudotuberculosis YPIII | satisfied |
| COc1ccc(/C=N/NC(=O)c2sc3ccccc3c2Cl)c(O)c1 | Yersinia pseudotuberculosis YPIII | satisfied |
| COc1cc(Br)cc(/C=N/NC(=O)Cc2ccccc2)c1O | Yersinia pseudotuberculosis YPIII | satisfied |
| O=C(N/N=C/c1cc([N+](=O)[O-])cc([N+](=O)[O-])c1O)c1ccc(Br)cc1 | Yersinia pseudotuberculosis YPIII | not satisfied |
| COc1cccc(/C=N/NC(=O)c2cc(OC)c(OC)c(OC)c2)c1O | Yersinia pseudotuberculosis YPIII | satisfied |
| COc1cc(/C=N/NC(=O)COc2ccc([N+](=O)[O-])cc2)c(O)c(OC)c1 | Yersinia pseudotuberculosis YPIII | not satisfied |
| O=C(N/N=C/c1cc(Cl)cc(Cl)c1O)c1ccccc1[N+](=O)[O-] | Yersinia pseudotuberculosis YPIII | satisfied |
| COc1cc([N+](=O)[O-])cc(/C=N/NC(=O)CC#N)c1O | Yersinia pseudotuberculosis YPIII | satisfied |
| COc1cc(Br)cc(/C=N/NC(=O)C(N)=O)c1O | Yersinia pseudotuberculosis YPIII | satisfied |
| COc1cccc(/C=N/NC(=O)c2ccccc2[N+](=O)[O-])c1O | Yersinia pseudotuberculosis YPIII | satisfied |
| COc1cccc(C(=O)N/N=C/c2cc(C(C)(C)C)cc(C(C)(C)C)c2O)c1 | Yersinia pseudotuberculosis YPIII | not satisfied |
| COc1cc(C(=O)N/N=C/c2ccc(O)c(O)c2O)cc(OC)c1OC | Yersinia pseudotuberculosis YPIII | satisfied |
| NC(=O)C(=O)N/N=C/c1c(O)cc(O)cc1O | Yersinia pseudotuberculosis YPIII | satisfied |
| O=C(N/N=C/c1ccc(Cl)cc1O)c1ccc(Br)cc1 | Yersinia pseudotuberculosis YPIII | not satisfied |
| O=C(N/N=C/c1cc(Br)ccc1O)c1ccccc1Cl | Yersinia pseudotuberculosis YPIII | satisfied |
| COc1ccc(Br)c(C(=O)N/N=C/c2cc(C(C)(C)C)ccc2O)c1 | Yersinia pseudotuberculosis YPIII | not satisfied |
| CC(C)(C)c1ccc(O)c(/C=N/NC(=O)CC23CC4CC(CC(C4)C2)C3)c1 | Yersinia pseudotuberculosis YPIII | not satisfied |
| CC(C)(C)c1cc(/C=N/NC(=O)COc2ccc([N+](=O)[O-])cc2)c(O)c(C(C)(C)C)c1 | Yersinia pseudotuberculosis YPIII | not satisfied |
| COc1ccc(C(=O)N/N=C/c2cc(I)cc(I)c2O)cc1OC | Yersinia pseudotuberculosis YPIII | satisfied |
| COc1cccc(C(=O)N/N=C/c2cccc(F)c2O)c1 | Yersinia pseudotuberculosis YPIII | satisfied |
| O=C(N/N=C/c1ccc(Cl)cc1O)c1ccncc1 | Yersinia pseudotuberculosis YPIII | satisfied |
| O=C(COc1ccc([N+](=O)[O-])cc1)N/N=C/c1cccc(F)c1O | Yersinia pseudotuberculosis YPIII | satisfied |

----------
# System: Yersinia pseudotuberculosis YPIII
# ASSAY NAME: Inhibition of T3S in Yersinia pseudotuberculosis YPIII expressing yopE-luxAB at 1.56 uM after 3 hrs by luciferase reporter gene assay
// values below are reported inhibition
QUANTITY MEASURED: inhibition (%)

| SMI | READOUT VALUE |
| --- | --- |
| COc1ccc(Br)c(/C=N/NC(=O)CC#N)c1O | -9 |
| O=C(N/N=C/c1ccc(Cl)cc1O)c1ccc(Br)cc1 | -6 |
| O=C(N/N=C/c1cccc(F)c1O)c1ccc([N+](=O)[O-])cc1 | 1 |
| COc1ccc(C(=O)N/N=C/c2cc(F)cc(Cl)c2O)cc1OC | -10 |
| COc1cccc(/C=N/NC(=O)c2ccccc2[N+](=O)[O-])c1O | -5 |
| COc1ccc(/C=N/NC(=O)c2sc3ccccc3c2Cl)c(O)c1 | -2 |
| CC(C)(C)c1ccc(O)c(/C=N/NC(=O)Cc2ccccc2)c1 | 9 |
| COc1ccc(Br)c(C(=O)N/N=C/c2cc(C(C)(C)C)ccc2O)c1 | 3 |
| COc1cccc(C(=O)N/N=C/c2cc(OC)cc(OC)c2O)c1 | -7 |
| O=C(N/N=C/c1cc(Cl)cc(Cl)c1O)c1ccccc1[N+](=O)[O-] | -4 |
| COc1cc(/C=N/NC(=O)c2cccc(C(F)(F)F)c2)c(O)c(OC)c1 | -10 |
